target-desc: T1, MET928 (cMET protein derived from construct 25-928) (human, UniProt P08581 25-928)
T1 construct: MET ectodomain, residues 1-24 are the leader; produced in Lec 8 cells; background text says the ectodomain is furin-cleaved into alpha (25-307) and beta chains; biotinylated form used in selections; also called MET928 extracellular domain; Met extracellular domain
T1 sequence (P08581 25-928): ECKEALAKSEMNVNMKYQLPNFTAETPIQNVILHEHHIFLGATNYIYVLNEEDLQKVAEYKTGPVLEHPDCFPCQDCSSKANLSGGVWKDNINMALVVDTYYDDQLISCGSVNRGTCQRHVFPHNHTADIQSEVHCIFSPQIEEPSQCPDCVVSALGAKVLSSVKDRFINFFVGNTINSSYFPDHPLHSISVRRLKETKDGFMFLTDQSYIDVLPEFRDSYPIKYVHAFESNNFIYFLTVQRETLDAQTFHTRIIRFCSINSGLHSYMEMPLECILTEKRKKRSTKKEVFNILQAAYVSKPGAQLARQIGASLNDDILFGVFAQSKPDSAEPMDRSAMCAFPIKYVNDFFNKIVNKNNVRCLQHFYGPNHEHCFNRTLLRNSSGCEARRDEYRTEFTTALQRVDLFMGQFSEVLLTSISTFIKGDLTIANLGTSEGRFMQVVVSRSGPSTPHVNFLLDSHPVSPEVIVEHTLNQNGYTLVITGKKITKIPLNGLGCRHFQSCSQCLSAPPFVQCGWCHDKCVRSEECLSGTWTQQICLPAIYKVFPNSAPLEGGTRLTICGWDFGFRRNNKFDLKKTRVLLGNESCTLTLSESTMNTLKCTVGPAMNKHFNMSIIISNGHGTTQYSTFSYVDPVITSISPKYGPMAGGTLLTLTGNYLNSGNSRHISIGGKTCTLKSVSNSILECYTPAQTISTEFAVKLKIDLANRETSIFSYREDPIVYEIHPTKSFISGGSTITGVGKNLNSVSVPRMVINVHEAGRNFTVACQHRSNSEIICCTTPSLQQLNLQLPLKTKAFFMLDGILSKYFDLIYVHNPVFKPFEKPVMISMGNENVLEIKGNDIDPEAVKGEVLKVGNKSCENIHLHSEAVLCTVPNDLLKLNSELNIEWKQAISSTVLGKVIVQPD
procedure-summary: Biacore SPR, MET-928 on chip, Fab format
Everything with kon lower than 900000 M⁻¹ s⁻¹ is n; everything else, including exactly 900000 M⁻¹ s⁻¹, is y.

Example entries and their recorded answers appear below.
Prompt line: // inclusive: kon at least 900000 M⁻¹ s⁻¹? input: 110_A12 Fab (His/tri-FLAG tagged, hinged) (Fab, V domains shown, Fab from pBIOCAM7-3F, hinged, hexahistidine and tri-FLAG tags on the heavy chain) VH: QMQLVQSGAEVKKPGAPVKVSCKVSGYTFTDYYMHWVQQAPGKGLEWMGLVDPEDGETIYAEKFQGRVTITADTSTDTAYMELSSLRSEDTAVYYCATDATTPYWFPREWGQGTLVTVSS VL: DIQMTQSPSSLSASVGDRVTITCQASQDISNYLNWYQQKPGRAPKVLIYDASNLETGVPSRFSGSGSGTEFTLTISNLRPDDFATYYCQQGDSFPLTFGGGTKVEIK
Response line: n

Prompt line: // inclusive: kon at least 900000 M⁻¹ s⁻¹? input: 107_A08 Fab (His/tri-FLAG tagged, hinged) (Fab, V domains shown, Fab from pBIOCAM7-3F, hinged, hexahistidine and tri-FLAG tags on the heavy chain) VH: QMQLVQSGAEVKKPGAPVKVSCKVSGYTFTDYYMHWVQQAPGKGLEWMGLVDPEDGETIYAEKFQGRVTITADTSTDTAYMELSSLRSEDTAVYYCATDATTPYWGMVEWGQGTLVTVSS VL: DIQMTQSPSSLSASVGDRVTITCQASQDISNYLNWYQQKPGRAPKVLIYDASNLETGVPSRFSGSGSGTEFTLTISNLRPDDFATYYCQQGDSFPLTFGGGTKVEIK
Response line: n

Prompt line: // inclusive: kon at least 900000 M⁻¹ s⁻¹? input: 111_D06 Fab (His/tri-FLAG tagged, hinged) (Fab, V domains shown, Fab from pBIOCAM7-3F, hinged, hexahistidine and tri-FLAG tags on the heavy chain) VH: QMQLVQSGAEVKKPGAPVKVSCKVSGYTFTDYYMHWVQQAPGKGLEWMGLVDPEDGETIYAEKFQGRVTITADTSTDTAYMELSSLRSEDTAVYYCATDATTPYWGMWQWGQGTLVTVSS VL: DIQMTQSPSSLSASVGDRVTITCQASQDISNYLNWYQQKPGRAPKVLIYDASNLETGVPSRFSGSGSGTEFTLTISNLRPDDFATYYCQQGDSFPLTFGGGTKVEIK
Response line: n

Prompt line: // inclusive: kon at least 900000 M⁻¹ s⁻¹? input: 110_A06 Fab (His/tri-FLAG tagged, hinged) (Fab, V domains shown, Fab from pBIOCAM7-3F, hinged, hexahistidine and tri-FLAG tags on the heavy chain) VH: QMQLVQSGAEVKKPGAPVKVSCKVSGYTFTDYYMHWVQQAPGKGLEWMGLVDPEDGETIYAEKFQGRVTITADTSTDTAYMELSSLRSEDTAVYYCATDATTPYWGMQLWGQGTLVTVSS VL: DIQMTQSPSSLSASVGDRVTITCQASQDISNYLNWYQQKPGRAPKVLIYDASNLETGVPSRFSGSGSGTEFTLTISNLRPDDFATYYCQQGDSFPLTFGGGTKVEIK
Response line: n

Prompt line: // inclusive: kon at least 900000 M⁻¹ s⁻¹? input: 107_A01 Fab (His/tri-FLAG tagged, hinged) (Fab, V domains shown, Fab from pBIOCAM7-3F, hinged, hexahistidine and tri-FLAG tags on the heavy chain) VH: QMQLVQSGAEVKKPGAPVKVSCKVSGYTFTDYYMHWVQQAPGKGLEWMGLVDPEDGETIYAEKFQGRVTITADTSTDTAYMELSSLRSEDTAVYYCATDATTPYWGMVSWGQGTLVTVSS VL: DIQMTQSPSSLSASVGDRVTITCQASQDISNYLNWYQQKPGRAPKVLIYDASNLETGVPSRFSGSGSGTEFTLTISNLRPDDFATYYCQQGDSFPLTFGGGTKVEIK
Response line: n

Prompt line: // inclusive: kon at least 900000 M⁻¹ s⁻¹? input: 7A2 Fab (His- and FLAG-tagged, hinged format) (Fab, V domains shown, Fab from pBIOCAM7-3F in HEK293 cells, hinged format (Leu-Glu after VH), hexahistidine and tri-FLAG tags at the C-terminus of the heavy chain) VH: QMQLVQSGAEVKKPGAPVKVSCKVSGYTFTDYYMHWVQQAPGKGLEWMGLVDPEDGETIYAEKFQGRVTITADTSTDTAYMELSSLRSEDTAVYYCATDATTPYYGMDVWGQGTLVTVSS VL: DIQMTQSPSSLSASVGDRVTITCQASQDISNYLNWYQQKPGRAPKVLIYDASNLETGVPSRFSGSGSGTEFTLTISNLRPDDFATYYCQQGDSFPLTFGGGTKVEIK
Response line: y

Prompt line: // inclusive: kon at least 900000 M⁻¹ s⁻¹? input: 110_A01 Fab (His/tri-FLAG tagged, hinged) (Fab, V domains shown, Fab from pBIOCAM7-3F, hinged, hexahistidine and tri-FLAG tags on the heavy chain) VH: QMQLVQSGAEVKKPGAPVKVSCKVSGYTFTDYYMHWVQQAPGKGLEWMGLVDPEDGETIYAEKFQGRVTITADTSTDTAYMELSSLRSEDTAVYYCATDATTPYWFPYLWGQGTLVTVSS VL: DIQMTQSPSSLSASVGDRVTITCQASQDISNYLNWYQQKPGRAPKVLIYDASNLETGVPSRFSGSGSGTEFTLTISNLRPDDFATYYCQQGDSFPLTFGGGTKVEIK
Response line: y

Prompt line: // inclusive: kon at least 900000 M⁻¹ s⁻¹? input: 110_A10 Fab (His/tri-FLAG tagged, hinged) (Fab, V domains shown, Fab from pBIOCAM7-3F, hinged, hexahistidine and tri-FLAG tags on the heavy chain) VH: QMQLVQSGAEVKKPGAPVKVSCKVSGYTFTDYYMHWVQQAPGKGLEWMGLVDPEDGETIYAEKFQGRVTITADTSTDTAYMELSSLRSEDTAVYYCATDATTPYWGMQTWGQGTLVTVSS VL: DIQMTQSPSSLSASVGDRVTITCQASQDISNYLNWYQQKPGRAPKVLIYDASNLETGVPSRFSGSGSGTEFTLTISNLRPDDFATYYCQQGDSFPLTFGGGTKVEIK
Response line: n

--- query ---
Prompt line: // inclusive: kon at least 900000 M⁻¹ s⁻¹? input: 107_A07 Fab (His/tri-FLAG tagged, hinged) (Fab, V domains shown, Fab from pBIOCAM7-3F in HEK293 cells, hinged format (Leu-Glu after VH), hexahistidine and tri-FLAG tags on the heavy chain) VH: QMQLVQSGAEVKKPGAPVKVSCKVSGYTFTDYYMHWVQQAPGKGLEWMGLVDPEDGETIYAEKFQGRVTITADTSTDTAYMELSSLRSEDTAVYYCATDATTPYWGMMWWGQGTLVTVSS VL: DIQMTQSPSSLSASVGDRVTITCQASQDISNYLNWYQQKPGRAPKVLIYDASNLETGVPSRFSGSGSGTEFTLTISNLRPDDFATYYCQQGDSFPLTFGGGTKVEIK
Response line: y
